# Test system: Saccharomyces cerevisiae
# TEST: protein stability index of tFT-peptide fusion (C-terminal peptide) (PSI (0-1 scale)); higher = more stable (slower turnover)
# APPLIED_CONDITIONS: genetic background: wild type; temperature: 30 C
Reported values of protein stability index for individual entries
Answer field: number only, no words.

The following sequences have reported results that may help.
[[record]]
monomer_sequence = "NFVVYHVAIRVP"
property_name = "protein stability index"
numeric_readout = 0.243

[[record]]
monomer_sequence = "RRGEKKDEKGGR"
property_name = "protein stability index"
numeric_readout = 0.67

[[record]]
monomer_sequence = "RFGRGAVWGLGG"
property_name = "protein stability index"
numeric_readout = 0.655

[[record]]
monomer_sequence = "LHFHIYLIISPF"
property_name = "protein stability index"
numeric_readout = 0.294

[[record]]
monomer_sequence = "RLTLPSQPHAPA"
property_name = "protein stability index"
numeric_readout = 0.694


Noted for PIWRLVMRCCRS : its protein stability index reads 0.575

Noted for GAGGGRSERERG : its protein stability index reads 0.593

Noted for VDFLLRDPPGPS : its protein stability index reads 0.72

Noted for GWSGCNWCIGVG : its protein stability index reads 0.584

Noted for QSYRGIGFRTTM : its protein stability index reads 0.607

Noted for HGYRWCLHARFG : its protein stability index reads 0.556

Noted for GQRKQKIKKKRK : its protein stability index reads 0.647

Noted for PNNANHIKHRQY : its protein stability index reads 0.672

Noted for GGVGRGGIRVMG : its protein stability index reads 0.629

* * *

# Tested on: Saccharomyces cerevisiae
# TEST: protein stability index of tFT-peptide fusion (C-terminal peptide) (PSI (0-1 scale)); higher = more stable (slower turnover)
# APPLIED_CONDITIONS: genetic background: das1 deletion; temperature: 37 C
PROPERTY_NAME: protein stability index
Answer field: number only, no words.

The following sequences have reported results that may help.
[[record]]
monomer_sequence = "VSSFLLPFCLLF"
property_name = "protein stability index"
numeric_readout = 0.714

[[record]]
monomer_sequence = "FELVWLCIIGAL"
property_name = "protein stability index"
numeric_readout = 0.516

[[record]]
monomer_sequence = "VCVYLVSLPYLA"
property_name = "protein stability index"
numeric_readout = 0.522

[[record]]
monomer_sequence = "FLSRHFLFLSFV"
property_name = "protein stability index"
numeric_readout = 0.678

[[record]]
monomer_sequence = "RGGVCFVVWCGG"
property_name = "protein stability index"
numeric_readout = 0.475


Now look at this entry.
Noted for VFWVVFRALVGD : its protein stability index reads 0.269

* * *

Reported values of protein stability index for individual entries
# Tested on: Saccharomyces cerevisiae
# TEST: protein stability index of tFT-peptide fusion (C-terminal peptide) (PSI (0-1 scale)); higher = more stable (slower turnover)
# APPLIED_CONDITIONS: genetic background: wild type; temperature: 30 C

The following sequences have reported results that may help.
[[record]]
monomer_sequence = "TRSADGFLGVMV"
result = 0.739

[[record]]
monomer_sequence = "QSGLAGIPIPKN"
result = 0.681


Noted for RLGECSRKSYHT : its protein stability index reads 0.692

Noted for PSAQPPPRPTRP : its protein stability index reads 0.688

Noted for GVGWQSPGVLVL : its protein stability index reads 0.605

* * *

# Test system: Saccharomyces cerevisiae
# TEST: protein stability index of tFT-peptide fusion (C-terminal peptide) (PSI (0-1 scale)); higher = more stable (slower turnover)
# APPLIED_CONDITIONS: genetic background: wild type; temperature: 30 C
PROPERTY_NAME: protein stability index
Answer field: number only, no words.

The following sequences have reported results that may help.
[[record]]
monomer_sequence = "PHSSPSHRLSLP"
property_name = "protein stability index"
numeric_readout = 0.722

[[record]]
monomer_sequence = "KIDEQNKNKMGM"
property_name = "protein stability index"
numeric_readout = 0.615

[[record]]
monomer_sequence = "AVPRPSPPPPPL"
property_name = "protein stability index"
numeric_readout = 0.674

[[record]]
monomer_sequence = "LRGAWRISIEGG"
property_name = "protein stability index"
numeric_readout = 0.666

[[record]]
monomer_sequence = "RCCGRSRLVVPW"
property_name = "protein stability index"
numeric_readout = 0.699

[[record]]
monomer_sequence = "STRLFTHPRFLP"
property_name = "protein stability index"
numeric_readout = 0.68


Value (protein stability index, Saccharomyces cerevisiae) for record PPPPPSSPPASP = 0.653

Value (protein stability index, Saccharomyces cerevisiae) for record PPIPYIVPPSYT = 0.657

* * *

# System: Saccharomyces cerevisiae
# TEST: protein stability index of tFT-peptide fusion (C-terminal peptide) (PSI (0-1 scale)); higher = more stable (slower turnover)
# APPLIED_CONDITIONS: genetic background: wild type; temperature: 30 C
PROPERTY_NAME: protein stability index
Answer field: number only, no words.

Noted for IKTDSVHELLKK [MFM1 C-terminal 12 aa] : its protein stability index reads 0.696

Noted for GWDRLVEARSQI [EMW1 C-terminal 12 aa] : its protein stability index reads 0.708

Noted for DDGTKNFIFKNK [ECM23 C-terminal 12 aa] : its protein stability index reads 0.706

Noted for EKFLGKKKTKTD [GPI16 C-terminal 12 aa] : its protein stability index reads 0.689

Noted for HGHHNSSTSGHK [PBP1 C-terminal 12 aa] : its protein stability index reads 0.714

Noted for AIARCALGETLL [CAR1 C-terminal 12 aa] : its protein stability index reads 0.641

Noted for TGRDMMKSAVGF [SRO77 C-terminal 12 aa] : its protein stability index reads 0.661

* * *

# System: Saccharomyces cerevisiae
# TEST: protein stability index of tFT-peptide fusion (C-terminal peptide) (PSI (0-1 scale)); higher = more stable (slower turnover)
# APPLIED_CONDITIONS: genetic background: das1 deletion; temperature: 30 C
Reported values of protein stability index for individual entries

The following sequences have reported results that may help.
[[record]]
monomer_sequence = "SRCLALVICYRV"
target_or_test_system = "Saccharomyces cerevisiae"
result = 0.439

[[record]]
monomer_sequence = "LQSVAFERGGPD"
target_or_test_system = "Saccharomyces cerevisiae"
result = 0.649

[[record]]
monomer_sequence = "GCRLRHRLVRIV"
target_or_test_system = "Saccharomyces cerevisiae"
result = 0.604


Noted for RLVYSQKRWSLF : its protein stability index reads 0.653

Noted for TFRPWPLHILAL : its protein stability index reads 0.216

Noted for LGLCFFFYSLHS : its protein stability index reads 0.411

Noted for YNTVALRITLIT : its protein stability index reads 0.329

Noted for TCVTLRYRLTFE : its protein stability index reads 0.564

Noted for DNTYRIDIKNKQ : its protein stability index reads 0.641

Noted for FCLFFFPSLFFF : its protein stability index reads 0.529

Noted for EWRPYKRNKQSS : its protein stability index reads 0.638

Noted for GGWGVFGVWVWM : its protein stability index reads 0.429

* * *

# Test system: Saccharomyces cerevisiae
# TEST: protein stability index of tFT-peptide fusion (C-terminal peptide) (PSI (0-1 scale)); higher = more stable (slower turnover)
# APPLIED_CONDITIONS: genetic background: wild type; temperature: 30 C
Label label 1 for high-side protein stability index (at or above 0.7) and label 0 for low-side protein stability index (below it).

Below, 5 sequences whose answers are already recorded.
[[record]]
monomer_sequence = "IAVNYGQKDLIE [BRR1 C-terminal 12 aa]"
assigned_class = "label 0"

[[record]]
monomer_sequence = "SSASPEVDCRCG [YLR444C C-terminal 12 aa]"
assigned_class = "label 1"

[[record]]
monomer_sequence = "SSIQDLLSKLAN [RTT103 C-terminal 12 aa]"
assigned_class = "label 1"

[[record]]
monomer_sequence = "SRVDEVVTKYSH [AAH1 C-terminal 12 aa]"
assigned_class = "label 0"

[[record]]
monomer_sequence = "VKPSQDNVDSKD [OPI1 C-terminal 12 aa]"
assigned_class = "label 0"


Request: Confirm if protein stability index reported for the sequence MTGILKDYSHRV [TFA2 C-terminal 12 aa] is 0.7 or above.
Result: label 1

Request: Confirm if protein stability index reported for the sequence ISLVFLWVSIEV [CSM4 C-terminal 12 aa] is 0.7 or above.
Result: label 0

Request: Confirm if protein stability index reported for the sequence ITQARANTWLVV [YOR024W C-terminal 12 aa] is 0.7 or above.
Result: label 0

Request: Confirm if protein stability index reported for the sequence KNNEVLLHKIKI [FAR8 C-terminal 12 aa] is 0.7 or above.
Result: label 0

Request: Confirm if protein stability index reported for the sequence PSIARILEFMQS [SAY1 C-terminal 12 aa] is 0.7 or above.
Result: label 0

Request: Confirm if protein stability index reported for the sequence NTDHKAGRSHLQ [PTC2 C-terminal 12 aa] is 0.7 or above.
Result: label 0

Request: Confirm if protein stability index reported for the sequence GAHDDMDNGDDW [LAS17 C-terminal 12 aa] is 0.7 or above.
Result: label 0

Request: Confirm if protein stability index reported for the sequence LLRKHVFPSVPK [VFA1 C-terminal 12 aa] is 0.7 or above.
Result: label 1

Request: Confirm if protein stability index reported for the sequence SNSSICFPLTIF [YKL136W C-terminal 12 aa] is 0.7 or above.
Result: label 0

Request: Confirm if protein stability index reported for the sequence LTVLCVILGYVL [UTR2 C-terminal 12 aa] is 0.7 or above.
Result: label 0

Request: Confirm if protein stability index reported for the sequence TRSAWDRAQRRL [LCP5 C-terminal 12 aa] is 0.7 or above.
Result: label 0

Request: Confirm if protein stability index reported for the sequence MGISSNSFQGVN [KDX1 C-terminal 12 aa] is 0.7 or above.
Result: label 0

Request: Confirm if protein stability index reported for the sequence YIHTYIYLLFVY [YIL100C-A C-terminal 12 aa] is 0.7 or above.
Result: label 0

Request: Confirm if protein stability index reported for the sequence VNADDEIENNVD [AMN1 C-terminal 12 aa] is 0.7 or above.
Result: label 0

Values were extracted from the supplement of paper PMC10724198.
